target: (H+/K+)-ATPase (Canis lupus familiaris, UniProt P50996); construct: The microsomes retained at the 15%-30% sucrose interface, after centrifugation at 250,000×g for sixty minutes, were used as the source of (H^+/K^+)-ATPase; from tissue; host or cells: gastric glandular mucosa of mongrel dogs (microsomal fraction, lyophilized); assay: Inhibition of (H+/K+)-ATPase from canine gastric mucosa (inorganic phosphate release); assay type: biochemical; settings: canine gastric mucosa microsomes, pH 6.0, 30 min preincubation at 37° C.; read-out: (H+/K+)-ATPase IC50
Sequence (P50996 whole entry): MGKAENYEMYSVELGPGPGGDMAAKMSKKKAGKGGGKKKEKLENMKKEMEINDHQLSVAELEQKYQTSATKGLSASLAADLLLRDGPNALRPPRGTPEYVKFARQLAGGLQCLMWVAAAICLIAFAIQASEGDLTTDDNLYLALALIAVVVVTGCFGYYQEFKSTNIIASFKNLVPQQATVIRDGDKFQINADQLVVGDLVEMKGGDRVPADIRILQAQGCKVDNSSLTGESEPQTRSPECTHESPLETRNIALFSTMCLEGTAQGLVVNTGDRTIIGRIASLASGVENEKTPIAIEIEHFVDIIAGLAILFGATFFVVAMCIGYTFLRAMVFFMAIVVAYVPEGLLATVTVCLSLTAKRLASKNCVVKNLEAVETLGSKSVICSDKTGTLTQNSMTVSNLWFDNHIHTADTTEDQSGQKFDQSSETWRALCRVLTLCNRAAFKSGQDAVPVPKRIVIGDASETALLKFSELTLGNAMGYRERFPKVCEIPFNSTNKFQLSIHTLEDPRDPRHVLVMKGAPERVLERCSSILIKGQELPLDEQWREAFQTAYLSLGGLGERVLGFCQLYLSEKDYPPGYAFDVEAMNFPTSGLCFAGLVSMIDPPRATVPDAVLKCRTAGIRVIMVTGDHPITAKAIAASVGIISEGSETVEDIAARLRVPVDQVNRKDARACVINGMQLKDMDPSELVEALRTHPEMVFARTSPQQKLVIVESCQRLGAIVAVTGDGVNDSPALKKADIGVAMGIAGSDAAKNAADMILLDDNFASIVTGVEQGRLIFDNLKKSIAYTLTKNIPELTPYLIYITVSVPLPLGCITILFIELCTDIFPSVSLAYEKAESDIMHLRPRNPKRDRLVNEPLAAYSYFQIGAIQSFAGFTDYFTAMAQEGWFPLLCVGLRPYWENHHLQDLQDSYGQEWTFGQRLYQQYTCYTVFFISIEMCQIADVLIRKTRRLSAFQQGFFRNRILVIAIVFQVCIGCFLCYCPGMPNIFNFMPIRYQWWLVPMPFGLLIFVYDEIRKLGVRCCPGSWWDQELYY
Sequence (P33704 whole entry partner): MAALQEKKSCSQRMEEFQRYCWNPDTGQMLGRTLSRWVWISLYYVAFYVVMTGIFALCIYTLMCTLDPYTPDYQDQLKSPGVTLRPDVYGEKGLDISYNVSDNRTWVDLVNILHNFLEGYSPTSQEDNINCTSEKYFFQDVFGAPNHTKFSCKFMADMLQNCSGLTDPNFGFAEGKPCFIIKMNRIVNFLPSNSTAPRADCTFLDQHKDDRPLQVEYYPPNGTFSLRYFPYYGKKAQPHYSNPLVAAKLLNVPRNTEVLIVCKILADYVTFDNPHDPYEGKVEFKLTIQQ
The compounds listed here are annotated with their pIC50.
The read-out pIC50 is expressed as -log10 of concentration in moles per litre.

Consider the following illustrative entries.
- COMPOUND: "Nc1cccc(C[S+]([O-])c2nc3ccccc3[nH]2)n1 (stereo not drawn) [Example 85]"
  pIC50: 5.60
- COMPOUND: "Nc1ccccc1C[S+]([O-])c1nc2cc(C(F)(F)F)ccc2[nH]1 (stereo not drawn) [Example 47]"
  pIC50: 5.36
- COMPOUND: "Cc1cccc2[nH]c([S+]([O-])Cc3cccc(N)n3)nc12 (stereo not drawn) [Example 87]"
  pIC50: 5.66
- COMPOUND: "Cc1ccc(C)c(C[S+]([O-])c2nc3ccccc3[nH]2)c1N (stereo not drawn) [Example 55, monohydrate]"
  pIC50: 6.09
- COMPOUND: "Nc1ccc(C[S+]([O-])c2nc3ccccc3[nH]2)cn1 (stereo not drawn) [Example 111, hydrate]"
  pIC50: 4.46

Noted for CCc1ccc(N)c(C[S+]([O-])c2nc3ccccc3[nH]2)c1 (stereo not drawn) [Example 37] : its pIC50 reads 5.70

pIC50 measured on Cc1ccc(N)c(C[S+]([O-])c2nc3ccccc3[nH]2)c1 (stereo not drawn) [Example 26] = 5.68

Per the records, this compound ( COc1ccc2[nH]c([S+]([O-])Cc3cccc(C)c3N)nc2c1 (stereo not drawn) [Example 36] ) has pIC50 equal to 5.27

# pIC50 of CCc1cccc(C[S+]([O-])c2nc3ccccc3[nH]2)c1N (stereo not drawn) [Example 38] = 5.41

Kindly note the recorded pIC50 for CC(C)(C)CNc1cccc(C[S+]([O-])c2nc3ccccc3[nH]2)n1 (stereo not drawn) [Example 107, hydrate] , which is 5.04

Short answer for COc1ccc2[nH]c([S+]([O-])Cc3ccccc3N)nc2c1 (stereo not drawn) [Example 12] : pIC50 was 4.96

compound CCCCc1ccc(N)c(C[S+]([O-])c2nc3ccccc3[nH]2)c1 (stereo not drawn) [Example 51] , pIC50 observed: 5.59

Kindly note the recorded pIC50 for CCOc1ccc2[nH]c([S+]([O-])Cc3ccccc3N)nc2c1 (stereo not drawn) [Example 45] , which is 4.62

Per the records, this compound ( Nc1cc(Cl)ccc1C[S+]([O-])c1nc2ccccc2[nH]1 (stereo not drawn) [Example 18] ) has pIC50 equal to 4.62

Lookup result for Nc1ccc(F)cc1C[S+]([O-])c1nc2ccccc2[nH]1 (stereo not drawn) [Example 76] ; measured pIC50: 4.60
